- Tested on: JURKAT cells
- Procedure Summary: MTT cell viability assay, JURKAT
- Assay type: cell-based, human
- Experimental Setup: Homo sapiens, 48 h, read-out: IC50 values of cells treated for 48 hours
pIC50: −log10 of the molar value.
Readout Type: pIC50

INSERT INTO assay_data (compound, assay_target, assay_value) VALUES
  ('Nc1ccc(-c2ccc3ncc4ccc(=O)n(-c5cccc(C(F)(F)F)c5)c4c3c2)cn1 [Torin-2]', 'JURKAT cells', 7.00);

1: COc1ccc(-c2ccc3ncc4c(c3c2)n(-c2ccc(N3CCNCC3)c(C(F)(F)F)c2)c(=O)n4C)cn1 [BGT226]
2: FC(F)c1nc2ccccc2n1-c1nc(N2CCOCC2)nc(N2CCOCC2)n1 [ZSTK474]
Exercise: Choose between 1 and 2 : whose measured pIC50 value is numerically larger? // respond with label for picked entry
Solution: 1
(1: 7.10, 2: 6.02)

Where these numbers come from: paper PMC5342446
